B1: Hairpin Ribozyme (parent)
chain: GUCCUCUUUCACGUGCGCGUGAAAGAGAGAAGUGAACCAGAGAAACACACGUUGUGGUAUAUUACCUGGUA

Variants of: B1
Assay: self-cleavage, relative activity (ratio to wild type); higher = more cleavage; co-transcriptional
Parameter: self-cleavage. Scope: all listed entries.
Simply state the number, no unit and no words.

Would you please look over these solved cases?
{"MUTATION_ID": "A22G C50G", "QUANTITY": "self-cleavage", "QUANTITATIVE_RESULT": 0.42}
{"MUTATION_ID": "U9G G34C", "QUANTITY": "self-cleavage", "QUANTITATIVE_RESULT": 0.833}
{"MUTATION_ID": "U5G A45G", "QUANTITY": "self-cleavage", "QUANTITATIVE_RESULT": 0.121}
{"MUTATION_ID": "C50A A64C", "QUANTITY": "self-cleavage", "QUANTITATIVE_RESULT": 0.124}
{"MUTATION_ID": "C4U C46A", "QUANTITY": "self-cleavage", "QUANTITATIVE_RESULT": 0.164}
{"MUTATION_ID": "A23U U62C", "QUANTITY": "self-cleavage", "QUANTITATIVE_RESULT": 0.247}

Give the reported self-cleavage for this variant. U20G C48A
0.203

Give the reported self-cleavage for this variant. U14A A30G
0.165

Give the reported self-cleavage for this variant. U20G A24U
0.731

Give the reported self-cleavage for this variant. G29C A61G
0.135

Give the reported self-cleavage for this variant. C50G A61C
0.0643
